Tested on: 485176-168-R4-J1-PDC spheroids with HUVEC/MSC, viability;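 also: spheroids exposed to compounds for seven days before readout; percent viability relative to DMSO vehicle control wells as 100%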
procedure.text: Anticancer human tumor 485176-168-R4-J1-PDC patient-derived pancreatic adenocarcinoma cell line growth inhibition [GQUAD]
experimental.parameters: second compound 0.1 µM; first compound 0.316 µM; active compounds read low
measured.endpoint: viability, T/C

Using the record for CCc1c2c(nc3ccc(O)cc13)-c1cc3c(c(=O)n1C2)COC(=O)[C@]3(O)CC + Cc1cnc(CNC(=O)c2c(=O)c3ccc(N4CCCN(C)CC4)nc3n3c2sc2ccccc23)cn1 , report its viability, T/C.
4.78%

Using the record for C=CC(=O)N1CCN(c2nc(=O)n(-c3c(C)ccnc3C(C)C)c3nc(-c4c(O)cccc4F)c(F)cc23)C(C)C1 (stereo not drawn) + Cc1cnc(CNC(=O)c2c(=O)c3ccc(N4CCCN(C)CC4)nc3n3c2sc2ccccc23)cn1 , report its viability, T/C.
86.7%

New cases:
Using the record for CC[C@@]1(O)C(=O)OCc2c1cc1n(c2=O)Cc2cc3c(CN(C)C)c(O)ccc3nc2-1 + Cc1[nH]c2ccc(F)cc2c1-c1nc2c3cccnc3c3ncccc3c2[nH]1 , report its viability, T/C.
41.1%
